Target protein (sequence): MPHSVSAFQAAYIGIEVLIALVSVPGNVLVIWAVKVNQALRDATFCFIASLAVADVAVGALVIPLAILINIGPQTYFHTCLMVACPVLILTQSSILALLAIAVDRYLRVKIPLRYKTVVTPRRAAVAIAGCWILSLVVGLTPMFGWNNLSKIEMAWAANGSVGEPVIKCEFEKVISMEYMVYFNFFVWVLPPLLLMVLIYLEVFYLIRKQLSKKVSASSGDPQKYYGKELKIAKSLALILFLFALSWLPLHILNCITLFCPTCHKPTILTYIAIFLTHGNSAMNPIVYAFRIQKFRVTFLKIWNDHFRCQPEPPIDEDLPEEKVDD
What pKi was measured for each of the following?
Give bare numbers, as −log10 of the molar value.

Examples with their reported pKi follow.
[[record]]
structure_notation = "CCCn1c(=O)c2c(nc(CCc3ccccc3)n2C)n(CCC)c1=O"
endpoint_result = 5.89

[[record]]
structure_notation = "CCCn1c(=O)c2nc(/C=C/c3ccccc3)[nH]c2n(CCC)c1=O"
endpoint_result = 5.74

[[record]]
structure_notation = "CCCn1c(=O)[nH]c(=O)c2[nH]c(/C=C/c3cc(OC)c(OC)c(OC)c3)nc21"
endpoint_result = 6.09


State the recorded pKi for every item in the following list.
1. CCCCn1c(=O)c2nc(/C=C/c3cc(OC)c(OC)c(OC)c3)[nH]c2n(CCCC)c1=O
2. CCCn1c(=O)c2[nH]c(CCC3CCCC3)nc2n(CCC)c1=O
3. CCCn1c(=O)c2c(nc(C3CCCC3)n2C)n(CCC)c1=O

Response:
5.85
6.49
5.09

State the recorded pKi for every item in the following list.
1. CCCn1c(=O)c2c(nc(CCC3CCCC3)n2C)n(CCC)c1=O
2. CCCn1c(=O)c2nc(/C=C/c3ccc(OC)c(OC)c3)[nH]c2n(CCC)c1=O

Response:
1. 5.89
2. 5.77
